- target.of.assay: PTHR1 receptor
- Sequence (P25961 whole entry): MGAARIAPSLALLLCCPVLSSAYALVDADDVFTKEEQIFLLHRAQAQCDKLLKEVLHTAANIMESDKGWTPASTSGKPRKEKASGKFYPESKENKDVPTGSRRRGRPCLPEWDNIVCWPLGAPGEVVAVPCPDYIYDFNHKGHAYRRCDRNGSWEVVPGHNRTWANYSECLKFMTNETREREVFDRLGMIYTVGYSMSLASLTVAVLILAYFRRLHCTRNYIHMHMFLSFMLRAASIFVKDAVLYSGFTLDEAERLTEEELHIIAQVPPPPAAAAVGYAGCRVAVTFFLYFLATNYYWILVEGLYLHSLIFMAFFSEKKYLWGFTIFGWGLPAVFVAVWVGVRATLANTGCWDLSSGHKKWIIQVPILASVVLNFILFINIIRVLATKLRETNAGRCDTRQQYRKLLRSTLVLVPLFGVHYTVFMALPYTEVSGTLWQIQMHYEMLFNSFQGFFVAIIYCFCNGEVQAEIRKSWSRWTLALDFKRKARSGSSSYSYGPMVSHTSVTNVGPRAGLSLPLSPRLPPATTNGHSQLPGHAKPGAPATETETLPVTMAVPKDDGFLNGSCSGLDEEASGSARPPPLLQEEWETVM
* marks the point of attachment. Palmitoyl = CCCCCCCCCCCCCCCC(=O)*
reported.property: Fold Shift of EC50 (fold)
Numeric only. Scale: fold

Asked: Sample Palmitoyl-NGEVQAEIKKSW-NH2 (SMILES CCCCCCCCCCCCCCCC(=O)N[C@@H](CC(N)=O)C(=O)NCC(=O)N[C@@H](CCC(=O)O)C(=O)N[C@H](C(=O)N[C@@H](CCC(N)=O)C(=O)N[C@@H](C)C(=O)N[C@@H](CCC(=O)O)C(=O)N[C@H](C(=O)N[C@@H](CCCCN)C(=O)N[C@@H](CCCCN)C(=O)N[C@@H](CO)C(=O)N[C@@H](Cc1c[nH]c2ccccc12)C(N)=O)[C@@H](C)CC)C(C)C) [Compound 99] — what was its Fold Shift of EC50?
Given back: 1
